Test: in vivo
Conditions: Sprague-Dawley, rat, po, 20 mg/kg
endpoint.label: half-life at 24 h (h)
Numeric answer only, unit h assumed.

Challenge: Need half-life at 24 h of CC(=O)O[C@H]1C(=O)[C@@]2(C)[C@H]([C@H](OC(=O)c3ccccc3)[C@]3(O)C[C@H](OC(=O)[C@H](O)[C@@H](NC(=O)c4ccccc4)c4ccccc4)C(C)=C1C3(C)C)[C@]1(OC(C)=O)CO[C@@H]1C[C@@H]2O , thanks.
Response given: 6.8

---

IC50 values, listed per item
Target: ATP-dependent translocase ABCB1 (Homo sapiens)
Sequence (P08183 whole entry): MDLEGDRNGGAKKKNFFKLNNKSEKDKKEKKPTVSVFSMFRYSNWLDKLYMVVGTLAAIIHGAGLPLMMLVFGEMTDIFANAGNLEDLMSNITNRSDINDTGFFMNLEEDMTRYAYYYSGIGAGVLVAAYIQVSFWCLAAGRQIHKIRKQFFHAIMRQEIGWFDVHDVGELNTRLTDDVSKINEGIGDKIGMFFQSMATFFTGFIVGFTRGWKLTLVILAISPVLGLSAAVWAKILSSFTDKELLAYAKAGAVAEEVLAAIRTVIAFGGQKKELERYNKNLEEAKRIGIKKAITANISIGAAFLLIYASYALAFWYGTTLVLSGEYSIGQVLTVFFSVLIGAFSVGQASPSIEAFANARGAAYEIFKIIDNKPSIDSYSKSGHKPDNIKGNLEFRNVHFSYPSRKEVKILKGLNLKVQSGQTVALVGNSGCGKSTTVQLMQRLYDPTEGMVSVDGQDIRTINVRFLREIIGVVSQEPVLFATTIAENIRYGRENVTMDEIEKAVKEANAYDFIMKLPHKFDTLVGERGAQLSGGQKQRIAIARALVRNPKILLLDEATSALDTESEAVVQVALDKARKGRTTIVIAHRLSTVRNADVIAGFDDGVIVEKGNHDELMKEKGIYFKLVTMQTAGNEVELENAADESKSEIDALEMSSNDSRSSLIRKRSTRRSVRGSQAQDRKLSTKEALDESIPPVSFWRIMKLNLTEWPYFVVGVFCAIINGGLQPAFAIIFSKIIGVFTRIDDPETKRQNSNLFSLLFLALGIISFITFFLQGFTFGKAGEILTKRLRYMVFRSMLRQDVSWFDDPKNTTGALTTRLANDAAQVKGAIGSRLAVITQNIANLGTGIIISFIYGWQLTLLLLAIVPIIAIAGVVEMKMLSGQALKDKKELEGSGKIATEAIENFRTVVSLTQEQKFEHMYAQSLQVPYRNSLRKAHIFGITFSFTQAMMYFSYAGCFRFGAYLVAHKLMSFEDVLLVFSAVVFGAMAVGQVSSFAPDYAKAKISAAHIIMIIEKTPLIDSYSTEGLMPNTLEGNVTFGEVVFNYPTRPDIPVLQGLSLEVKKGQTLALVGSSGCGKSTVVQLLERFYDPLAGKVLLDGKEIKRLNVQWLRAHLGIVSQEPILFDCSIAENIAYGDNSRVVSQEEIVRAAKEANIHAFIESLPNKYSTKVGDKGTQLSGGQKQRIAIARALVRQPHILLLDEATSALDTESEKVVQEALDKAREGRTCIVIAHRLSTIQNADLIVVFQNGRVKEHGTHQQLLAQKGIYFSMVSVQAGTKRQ
Experiment: Inhibition of paclitaxel stimulated- P-gp ATPase activity (unknown origin)
Output should be the measured figure followed by the unit it is expressed in.

sample.smiles	endpoint.label	recorded.value
COc1cc2c(cc1OC)CN(CCc1ccc(NC(=O)c3cc(OC)c(OC)cc3NC(=O)c3cnc4ccccc4c3)cc1)CC2	IC50	0.0327 µM

Challenge: Need IC50 of COc1cc2c(cc1OC)CN(CCc1ccc(-n3nnc(-c4cc(OC)c(OC)cc4NC(=O)c4cc(=O)c5ccccc5o4)n3)cc1)CC2 , thanks.
Response given: 0.0006 µM

---

Assay: Cmax in human upto 360 mg, po administered as repeated dose for 5 consecutive days
Type: ADME, organism-based
Set-up: route oral, dose <=360
Conditions: in vivo
endpoint.label: Cmax (ng/mL)
Numeric answer only, unit ng/mL assumed.

Challenge: Need Cmax of COc1cc2c(cc1OC)CN(CCc1ccc(-n3nnc(-c4cc(OC)c(OC)cc4NC(=O)c4cc(=O)c5ccccc5o4)n3)cc1)CC2 , thanks.
Response given: 22.5

---

Assay: Ratio of drug concentration in BALB/c mouse large intestine to plasma at 20 mg/kg, po measured upto 24 hrs in presence of 10 mg/kg encequidar by LC-MS/MS analysis
Type: ADME, organism-based
endpoint.label: Kp at 24 h

Challenge: Need Kp at 24 h of CC(=O)O[C@H]1C(=O)[C@@]2(C)[C@H]([C@H](OC(=O)c3ccccc3)[C@]3(O)C[C@H](OC(=O)[C@H](O)[C@@H](NC(=O)c4ccccc4)c4ccccc4)C(C)=C1C3(C)C)[C@]1(OC(C)=O)CO[C@@H]1C[C@@H]2O [PACLITAXEL] , thanks.
Response given: > 1

---

Test: AUClast in Sprague-Dawley rat at 20 mg/kg, po measured upto 24 hrs by LC-MS/MS analysis
Format: ADME, organism-based
Set-up: route oral, dose 20 mg/kg, time <=24
Conditions: in vivo
endpoint.label: AUC(0-t) at 24 h

Challenge: Need AUC(0-t) at 24 h of CC(=O)O[C@H]1C(=O)[C@@]2(C)[C@H]([C@H](OC(=O)c3ccccc3)[C@]3(O)C[C@H](OC(=O)[C@H](O)[C@@H](NC(=O)c4ccccc4)c4ccccc4)C(C)=C1C3(C)C)[C@]1(OC(C)=O)CO[C@@H]1C[C@@H]2O , thanks.
Response given: 308 ng·h/mL

---

Assay: AUClast in Sprague-Dawley rat at 20 mg/kg, po measured upto 24 hrs in presence of 10 mg/kg encequidar by LC-MS/MS analysis
Assay type: ADME, organism-based
Set-up: route oral, dose 20 mg/kg, time <=24
Settings: in vivo
endpoint.label: AUC(0-t) at 24 h
Output should be the measured figure followed by the unit it is expressed in.

Challenge: Need AUC(0-t) at 24 h of CC(=O)O[C@H]1C(=O)[C@@]2(C)[C@H]([C@H](OC(=O)c3ccccc3)[C@]3(O)C[C@H](OC(=O)[C@H](O)[C@@H](NC(=O)c4ccccc4)c4ccccc4)C(C)=C1C3(C)C)[C@]1(OC(C)=O)CO[C@@H]1C[C@@H]2O , thanks.
Response given: 3760 ng·h/mL

Value source: ChEMBL document CHEMBL4825663
